Test system: Depigmented Generation 1 avirulent phenotype survivors (MRSA G1)
Experiment: Kirby-Bauer zones of inhibition (ZOI) antibiotic susceptibility assay, depigmented survivor Generation 1
Type: cell-based, S. aureus
Conditions: Depigmented Generation 1 after light dose regiment; Kirby-Bauer ZOI
Please note: Y applies when Zone diameter is 30 mm or greater, and N applies otherwise.

| Test smiles | Qualitative label |
| --- | --- |
| CC=CC1=C(C(=O)O)N2C(=O)[C@@H](NC(=O)[C@H](N)c3ccc(O)cc3)[C@H]2SC1 | Y |
| Cc1onc(-c2ccccc2)c1C(=O)N[C@@H]1C(=O)N2[C@@H]1SC(C)(C)[C@@H]2C(=O)O | N |
| CN(C)[C@@H]1C(O)=C(C(N)=O)C(=O)[C@@]2(O)C(O)=C3C(=O)c4c(O)cccc4[C@@](C)(O)[C@H]3C[C@@H]12 | Y |
| CCn1cc(C(=O)O)c(=O)c2cc(F)c(N3CCNCC3)cc21 | Y |
| CC(=O)NC[C@H]1CN(c2ccc(N3CCOCC3)c(F)c2)C(=O)O1 | Y |
| CO[C@H]1/C=C/O[C@@]2(C)Oc3c(C)c(O)c4c(O)c(c(/C=N/N5CCN(C)CC5)c(O)c4c3C2=O)NC(=O)/C(C)=C\C=C\[C@H](C)[C@H](O)[C@@H](C)[C@@H](O)[C@@H](C)[C@H](OC(C)=O)[C@@H]1C | Y |
